target: Protein Mdm4 (Homo sapiens) + E3 ubiquitin-protein ligase Mdm2 (Homo sapiens) (UniProt O15151+Q00987); test: inhibitors of human Mdm2-MdmX association, primary screen, cell-based, luminescence, split luciferase, SaOS-2, uHTS (AID 485346); conditions: SaOS-2 split-luciferase Mdm2/MdmX complementation, at 8 µM
Sequence (O15151 whole entry, looked up): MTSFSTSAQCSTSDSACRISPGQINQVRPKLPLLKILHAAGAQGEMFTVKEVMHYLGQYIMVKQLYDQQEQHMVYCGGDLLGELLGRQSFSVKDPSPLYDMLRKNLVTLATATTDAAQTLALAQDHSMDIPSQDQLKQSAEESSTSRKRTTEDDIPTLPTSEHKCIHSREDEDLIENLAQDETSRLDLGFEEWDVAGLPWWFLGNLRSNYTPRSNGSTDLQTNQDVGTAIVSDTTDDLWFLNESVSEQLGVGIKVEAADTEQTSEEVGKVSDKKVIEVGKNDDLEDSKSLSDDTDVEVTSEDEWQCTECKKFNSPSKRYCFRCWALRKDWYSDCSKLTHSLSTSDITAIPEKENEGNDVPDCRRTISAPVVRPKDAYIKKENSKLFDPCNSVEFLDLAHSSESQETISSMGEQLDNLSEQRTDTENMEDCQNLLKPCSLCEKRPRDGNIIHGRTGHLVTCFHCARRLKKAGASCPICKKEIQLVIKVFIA
Sequence (Q00987 whole entry, looked up): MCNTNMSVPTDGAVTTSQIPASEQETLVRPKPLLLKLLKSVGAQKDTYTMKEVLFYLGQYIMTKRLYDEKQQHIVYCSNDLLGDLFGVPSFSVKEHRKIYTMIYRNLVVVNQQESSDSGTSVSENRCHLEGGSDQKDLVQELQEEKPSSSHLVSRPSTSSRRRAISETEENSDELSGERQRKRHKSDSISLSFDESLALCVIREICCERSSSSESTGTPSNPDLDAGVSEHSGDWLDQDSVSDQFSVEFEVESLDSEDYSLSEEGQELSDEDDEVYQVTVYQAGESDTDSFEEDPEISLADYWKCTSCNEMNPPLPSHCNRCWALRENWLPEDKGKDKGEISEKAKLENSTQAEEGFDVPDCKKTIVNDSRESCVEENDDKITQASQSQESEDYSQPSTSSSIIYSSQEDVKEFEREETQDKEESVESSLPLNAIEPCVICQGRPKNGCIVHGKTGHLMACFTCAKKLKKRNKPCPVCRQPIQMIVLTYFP
Out of some 330,000 compounds screened, about 10,000 (3%) were called active.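 Rule for the calls: active = inhibition of at least 50% at 8 µM in the primary screen; inactive = the rest.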 This excerpt belongs to a sample that is enriched for actives.
Give your call using only these classes: active, inactive

>>> label("Cc1cccc(OCC(O)CN2CCN(S(=O)(=O)c3ccc(C)cc3C)CC2)c1 (centres undefined)")
"inactive"
>>> label("NC(N)=N/N=C/c1ccc(OCc2ccc(Cl)cc2Cl)cc1")
"active"

Recorded test outcome, item "Nc1nonc1-n1nnc(C(=O)N/N=C/c2ccccc2O)c1CN1CCCC1"
active

Next up: O=C(NCC1CCCO1)c1ccc2ccccc2n1 (centres undefined)
inactive

Next up: "C[C@@H]1C[C@@H]2O[C@H]2/C=C\C=C\C(=O)Cc2c(Cl)c(O)cc(O)c2C(=O)O1"
active

Next up: "COc1ccc(C/C(C)=N/NC(=O)c2ccncc2)cc1"
inactive

Next up: "COc1ccc(-c2nc3cnccn3c2NC2CCCCC2)cc1-c1cccc(Cl)c1"
inactive

Next up: "O=c1[nH]c(CCl)nc2cc(-c3ccc(Cl)cc3)sc12"
active

Next up: CCOC(=O)c1ccc(N2C(=O)CC(N(C)Cc3ccccc3)C2=O)cc1 (centres undefined)
inactive

Next up: "CN(C)S(=O)(=O)c1ccc(C(=O)NCCN=C2NS(=O)(=O)c3ccccc32)cc1"
inactive

Next up: "Cc1nc2ccccc2nc(C)c1=NOCc1ccc(Cl)cc1Cl"
inactive

Next up: "O=C(CCNc1n[nH]c(=O)[nH]c1=O)N/N=C\c1ccc(Br)cc1"
inactive

Next up: "COCCCNC(=S)NC(=O)c1ccccc1"
inactive

Next up: "Cc1ccc(C(=O)C(=S)N2CCOCC2)cc1"
inactive

###

biological target: Protein Mdm4 (Homo sapiens) + E3 ubiquitin-protein ligase Mdm2 (Homo sapiens) (UniProt O15151+Q00987); assay: inhibitors of human Mdm2-MdmX association, primary screen, cell-based, luminescence, split luciferase, SaOS-2, uHTS (AID 485346); settings: SaOS-2 split-luciferase Mdm2/MdmX complementation, at 8 µM, active compounds read high
Screen size: about 330,000 compounds; about 10,000 (3%) were called active. The full list was thinned out, with actives kept by preference.
Let's look at some compounds and their measured inhibition.
# output: bare number, implied unit %

Use the examples below as a reference point.
>>> result("Cc1cc(C)nc(/N=C2\\NC(=O)CC(C(=O)O)N2c2ccc(Cl)cc2Cl)n1 (configuration not stated)")
3.8
>>> result("O=C(CCc1ccccc1)Nc1ccc(NC(=O)C2CCCCC2)nc1")
11
>>> result("CC1CN(C(=S)Nc2ccccc2F)CC(C)O1 (configuration not stated)")
28.4
>>> result("Cc1ccc2[nH]c(=O)c(CN(CCCN(C)C)C(=O)Nc3cccc(Cl)c3)cc2c1")
66.9
>>> result("COc1ccc(-c2[nH]ncc2CN(C)Cc2c(C)n[nH]c2C)c(OC)c1")
15.3
>>> result("COc1ccc(-c2n[nH]c(C)c2-c2ccccc2OC)c(O)c1")
38.6
>>> result("CCCn1c(C)cc(-c2csc(NC(=O)CCc3nc4ccccc4c(=O)[nH]3)n2)c1C")
13.7
>>> result("CC(=O)OCCC(C)C")
9.67
>>> result("Nn1cnnc1N/N=C/c1cc([N+](=O)[O-])c(Cl)cc1Cl")
-3.78
>>> result("C=C(C)COc1ccc(-c2n[nH]c(C)c2-c2ccccc2)c(O)c1")
53.7

Tell me the measured inhibition of "CCC(=O)N(CCc1ccccc1)Cc1cc2cc(C)ccc2[nH]c1=O" , please.
-5.57

Next up: "COc1ccc(-c2n[nH]c(C)c2-c2ccc(OC)c(OC)c2)c(O)c1"
62.5

Next up: NC(=O)C(Cc1ccccc1)NC(=O)C12CC3CC(CC(C3)C1)C2 (configuration not stated)
2.27

Next up: Cc1cc(C)c(S(=O)(=O)N(C)CC(=O)NCC2CCCO2)c(C)c1 (configuration not stated)
0.089

Next up: Cc1ccc2[nH]c(=O)c(CN(CC3COCCO3)C(=O)Nc3ccccc3C)cc2c1 (configuration not stated)
6.03

Next up: "C=C(C)COc1ccc(-c2n[nH]c(C)c2-c2ccccc2OC)c(O)c1"
53.6

Next up: "N#Cc1ccc(C2=CC(=O)C[C@H](c3ccc(Cl)cc3)C2)cc1"
-22.1

Next up: "Cc1cc(C(=O)NNC(=O)c2ccccc2O)c(C)o1"
30

Next up: COC(=O)c1ccc(C23CC4(C2)[C@H](CN(Cc2cccnc2)[C@@H]4c2ccccc2)C3c2ccc(Cl)nc2)cc1 (some centres not stated)
21.5

Next up: CC1=C(C)CC(C(=O)NNC(=O)c2ccccc2O)C(C(=O)O)C1 (configuration not stated)
60.5

Next up: "Cc1ccc(O)c(NC(=S)NC(=O)COc2ccc(Br)cc2)c1"
-6.04

Next up: "CCc1cc2cc(OC)ccc2nc1SCC(=O)Nc1cc(OC)c(OC)cc1C(=O)O"
17
